Taken from the supplement of paper PMC3334620.

Target: Yer064c (UniProt P40041)
Sequence: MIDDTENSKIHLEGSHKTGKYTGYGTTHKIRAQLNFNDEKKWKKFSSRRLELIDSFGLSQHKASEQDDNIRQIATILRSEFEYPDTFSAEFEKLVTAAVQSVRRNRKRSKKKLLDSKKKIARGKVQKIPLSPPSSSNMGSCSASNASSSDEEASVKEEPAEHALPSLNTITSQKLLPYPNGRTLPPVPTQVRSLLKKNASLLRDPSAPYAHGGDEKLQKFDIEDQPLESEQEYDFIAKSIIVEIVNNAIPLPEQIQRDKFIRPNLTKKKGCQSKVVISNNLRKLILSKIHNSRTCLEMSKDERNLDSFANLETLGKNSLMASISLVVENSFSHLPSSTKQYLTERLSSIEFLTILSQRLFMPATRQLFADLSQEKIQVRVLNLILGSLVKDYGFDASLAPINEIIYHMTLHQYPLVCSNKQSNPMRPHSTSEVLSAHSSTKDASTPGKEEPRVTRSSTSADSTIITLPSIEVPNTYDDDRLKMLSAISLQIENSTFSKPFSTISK
Assay: PBM E-score (8-mer binding enrichment) (E-score (-0.5 to 0.5)); higher = stronger / more preferred TF binding
Conditions: protein concentration: 200 nM; construct: GST-full length
Whole data set: some 33,000 sequences, median “E-score (-0.5 to 0.5)” near -0.036, cut for the highest 2% near 0.37. Shown is part of a subset that was picked to be rich in the highest values.
So basically: PBM E-score at 0.08 or higher? That is true. Lower than 0.08? That is false.

// below: answered sequences
ACAGACTC; true
AGTGAAAT; true
TGTATCAA; true
ATATATCA; false
GTTCTATA; false

Request: Entry ATCATGAG : is its PBM E-score no less than 0.08?
Result: true

Request: Lookup AAAGACTT
Result: true

Request: Lookup CTGTAGTA
Result: true

Request: Lookup ACTGTTGC
Result: false

Request: Lookup GTCTATCA
Result: false

Request: Lookup TAAGACTA
Result: true

###

Molecular target: Yer064c (UniProt P40041)
Sequence: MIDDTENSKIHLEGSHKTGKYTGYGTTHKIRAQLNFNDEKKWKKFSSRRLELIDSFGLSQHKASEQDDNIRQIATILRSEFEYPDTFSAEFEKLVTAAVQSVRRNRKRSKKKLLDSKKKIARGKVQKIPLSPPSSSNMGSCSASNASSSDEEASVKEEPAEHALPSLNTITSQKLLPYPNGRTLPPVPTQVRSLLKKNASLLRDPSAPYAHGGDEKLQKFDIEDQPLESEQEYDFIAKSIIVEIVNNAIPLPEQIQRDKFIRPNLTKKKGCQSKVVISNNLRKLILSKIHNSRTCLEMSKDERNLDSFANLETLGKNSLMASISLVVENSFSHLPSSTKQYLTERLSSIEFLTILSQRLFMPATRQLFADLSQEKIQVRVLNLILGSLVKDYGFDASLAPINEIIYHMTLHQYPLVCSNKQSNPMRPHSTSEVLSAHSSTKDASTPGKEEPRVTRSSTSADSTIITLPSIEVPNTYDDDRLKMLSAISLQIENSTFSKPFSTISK
Assay: PBM E-score (8-mer binding enrichment) (E-score (-0.5 to 0.5)); higher = stronger / more preferred TF binding
Conditions: protein concentration: 200 nM; construct: GST-full length
Whole data set: some 33,000 sequences, median “E-score (-0.5 to 0.5)” near -0.036, cut for the highest 2% near 0.37. The sample as a whole holds a higher share of the highest values than the screen did.
Label scheme for PBM E-score: bin A = under 0.2, bin B = from 0.2 up to 0.3, bin C = 0.3 and over

ATTCAGTC; bin C
AATCAGTC; bin C
CACTCCAC; bin A

Request: Any idea which band CCTCAGTC is in?
Result: bin C

Request: Lookup GAAGTTAC
Result: bin A

Request: Lookup GATGATTA
Result: bin C

Request: Lookup AATTATGA
Result: bin B

Request: Lookup GATGATGA
Result: bin B

Request: Lookup AACTCCAA
Result: bin A

Request: Lookup AATCAGTA
Result: bin B
